Would you mind telling me the reported normalized growth of each entry?
protocol.text: chemical genetic growth profiling, strain panel (AID 1159580);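 also: tested at 20 µM; growth read once vehicle control cultures reached saturation at 30 °C; 1 = growth at the plate median or of vehicle wells; lower values mean less growth of the strain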
test.settings: S. cerevisiae deletion strains, growth OD, locus YER016W, strain bim1, stronger effect = lower value
About 2,000 (36%) of roughly 5,500 compounds were called active. Roughly 18% stayed inconclusive and do not appear here. The list shows a part of the results. Where a SMILES comes first, the peptide text is derived from it.

C[C@]12CCC3c4ccc(O)cc4CCC3C1CC[C@@H]2O (stereo partly drawn): 0.969 (inactive)
COc1cc(OC)c2ccc(=O)oc2c1: 0.975 (inactive)
NC(=NCCC[C@H](N)C(=O)O)N[N+](=O)[O-]: 1.01 (inactive)
CCc1cc(C(N)=S)ccn1: 0.957 (inactive)
O=c1ccc2c(O)c3ccoc3cc2o1: 0.994 (inactive)

Could I get normalized growth for every one of these entries?
1. NC(=O)NCCCC(N)C(=O)O (stereo not drawn)
2. CN1C[C@H](C(=O)N[C@]2(C)O[C@@]3(O)[C@@H]4CCCN4C(=O)[C@H](Cc4ccccc4)N3C2=O)C[C@@H]2c3cccc4[nH]cc(c34)C[C@H]21
3. CCCCOc1cc(C(=O)NCCN(CC)CC)c2ccccc2n1
4. CCC(c1ccc(O)cc1)C(CC)c1ccc(O)cc1 (stereo not drawn)
5. CNC(=O)Oc1cccc2c1OC(C)(C)O2
6. CC(=O)OC(C)C[N+](C)(C)C (stereo not drawn)
7. COc1cc2occc2c2oc(=O)ccc12

1. 1.01 (inactive)
2. 0.988 (inactive)
3. 1.01 (inactive)
4. 0.94 (inactive)
5. 0.998 (inactive)
6. 0.994 (inactive)
7. 1.02 (inactive)

Could I get normalized growth for every one of these entries?
1. C[C@@H]([C@H](O)c1ccccc1)N(C)C
2. CCN(Cc1ccncc1)C(=O)C(CO)c1ccccc1 (stereo not drawn)
3. CC(C)c1c(O)ccc2c1CCC1[C@@](C)(C=O)CCC[C@]21C (stereo partly drawn)
4. OC1CC2CCCC(C1)N2Cc1ccccc1 (stereo not drawn)
5. COc1ccc2ccc(=O)oc2c1
6. COC(=O)[C@H](Cc1ccccc1)NC(=O)[C@@H](N)CC(=O)O (H-Asp-Phe-OMe)

["1.02 (inactive)", "1.03 (inactive)", "0.789 (active)", "0.986 (inactive)", "1 (inactive)", "1.01 (inactive)"]

###

protocol.text: chemical genetic growth profiling, strain panel (AID 1159580);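 also: tested at 20 µM; growth read once vehicle control cultures reached saturation at 30 °C; 1 = growth at the plate median or of vehicle wells; lower values mean less growth of the strain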
test.settings: S. cerevisiae deletion strains, growth OD, locus YLR342W, strain FKS1, stronger effect = lower value
Out of some 5,500 compounds screened, about 2,000 (36%) were called active. Not shown: some 18% with an inconclusive outcome. The list shows a part of the results.
Labelling: normalized growth reported below 1 becomes t; at or above becomes f.

CC1CC[C@@]2(OC1)O[C@H]1CC3C4CC[C@@H]5C[C@@H](O)CC[C@]5(C)C4CC[C@]3(C)[C@H]1[C@@H]2C (some centres undefined): f
C[N+](C)(C)CC(O)CC(=O)O (centres undefined): t
O=c1c(O)c(-c2ccc(O)c(O)c2)oc2cc(O)cc(O)c12: t

Check if normalized growth falls below 1 for CC1CC[C@]2(NC1)O[C@H]1CC3C4CC[C@H]5C[C@@H](O)CC[C@]5(C)C4CC[C@]3(C)[C@H]1[C@@H]2C (some centres undefined) .
t

Check if normalized growth falls below 1 for `Cc1cc(C2CCCCC2)n(O)c(=O)c1` .
t

Check if normalized growth falls below 1 for CCC(c1ccc(O)cc1)C(CC)c1ccc(O)cc1 (centres undefined) .
t

Attribution: PubChem BioAssay AID1159580
